Reference source for all entries: PubChem BioAssay

# METHOD DESCRIPTION: LAP4-GFP expression modulators in yeast, confirmation, cell-based, cherry picks, flow cytometry, mother/daughter gates (AID 2271);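 further: ratio of sample to DMSO plate mean so 100% equals DMSO level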
# EXPERIMENTAL PARAMETERS: S. cerevisiae LAP4-GFP strain, 3 h, measured here: mother cell gate response, at 10 µM, stronger effect = higher value, 100 means same as DMSO control
PROPERTY: GFP response relative to DMSO (%)
Write the answer as a number in %, unit excluded.

Ask: Recorded GFP response relative to DMSO of CCCc1[nH]nc2c1C(c1ccccc1OCC)C(C#N)=C(N)O2 (stereo unspecified) , please.
Result: 101

Ask: Recorded GFP response relative to DMSO of N#C/C(=C\c1c(N2CCC(C(N)=O)CC2)nc2ccccn2c1=O)C(=O)NCc1ccco1 , please.
Result: 99.5

Ask: Recorded GFP response relative to DMSO of O=C(Nc1cccc(Cl)c1N1CCCC1)c1ccc([N+](=O)[O-])o1 , please.
Result: 96.1

Ask: Recorded GFP response relative to DMSO of COc1ccc2cc(-c3cc(C(=O)O)c4ccccc4n3)ccc2c1 , please.
Result: 101

Ask: Recorded GFP response relative to DMSO of COc1ccc(CC(=O)Oc2ccccc2C)cc1 , please.
Result: 98.5

Ask: Recorded GFP response relative to DMSO of Cc1ccc(/C=C2/NC(=O)N(Cc3ccccc3)C2=O)o1 , please.
Result: 113

###

Consider the following molecules; for each one, report its aptamer binding inhibition.
# SYSTEM TESTED: Beta-adrenergic receptor kinase 1 (Homo sapiens) (UniProt P25098)
# Sequence (P25098 whole entry, looked up): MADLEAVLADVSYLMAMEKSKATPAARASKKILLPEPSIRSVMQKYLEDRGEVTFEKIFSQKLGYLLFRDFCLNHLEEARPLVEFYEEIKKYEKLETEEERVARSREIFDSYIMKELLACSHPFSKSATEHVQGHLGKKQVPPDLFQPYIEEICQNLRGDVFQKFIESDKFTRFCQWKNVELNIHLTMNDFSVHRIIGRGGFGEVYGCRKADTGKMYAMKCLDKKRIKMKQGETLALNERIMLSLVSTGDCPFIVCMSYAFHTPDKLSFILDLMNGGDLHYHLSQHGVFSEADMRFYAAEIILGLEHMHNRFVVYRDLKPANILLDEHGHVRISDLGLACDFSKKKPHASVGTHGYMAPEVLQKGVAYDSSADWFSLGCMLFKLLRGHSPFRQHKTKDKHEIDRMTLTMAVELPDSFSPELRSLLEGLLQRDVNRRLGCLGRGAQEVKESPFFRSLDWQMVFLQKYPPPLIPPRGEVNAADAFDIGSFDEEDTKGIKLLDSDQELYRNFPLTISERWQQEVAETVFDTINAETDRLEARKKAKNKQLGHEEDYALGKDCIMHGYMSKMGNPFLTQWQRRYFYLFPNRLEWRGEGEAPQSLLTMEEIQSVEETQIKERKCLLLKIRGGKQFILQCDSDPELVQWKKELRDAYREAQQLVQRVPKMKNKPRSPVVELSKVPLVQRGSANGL
# METHOD DESCRIPTION: GRK2 binders displacing RNA aptamer, biochemical, validation, human GRK2, bead flow cytometry (AID 488806)
# EXPERIMENTAL PARAMETERS: bead-bound GRK2, FAM-aptamer displacement, at 10 µM, stronger effect = higher value
Write the answer as a number in %, unit excluded.

Ask: Recorded aptamer binding inhibition of CCOC(=O)c1ccccc1NC(=O)c1ccc(F)cc1 , please.
Result: 3

Ask: Recorded aptamer binding inhibition of C[C@H]1O[C@H]1P(=O)(O)O , please.
Result: 5

Ask: Recorded aptamer binding inhibition of CC1=CC(C)(C)N2C(=O)C3(NCCc4c3[nH]c3ccccc43)c3cc(C)cc1c32 (stereo not given) , please.
Result: -3

Ask: Recorded aptamer binding inhibition of O=C(c1ccccc1)N1CCN(C(=O)c2ccccc2)CC1 , please.
Result: 7

Ask: Recorded aptamer binding inhibition of CC(C)C[C@H](NC(=O)[C@@H]1Cc2ccccc2CN1C(=O)OC(C)(C)C)C(=O)NCC1CCC(C(=O)O)CC1 (stereo not given in full) , please.
Result: 3

Ask: Recorded aptamer binding inhibition of O=C(Nc1ccc(Oc2c(F)c(F)c(F)c(F)c2F)cc1)OC1CCN2Cc3ccccc3N=C12 (stereo not given) , please.
Result: 0

Ask: Recorded aptamer binding inhibition of O=C(NC(CO)Cc1ccc([N+](=O)[O-])cc1)C(Cl)Cl (stereo not given) , please.
Result: 15

Ask: Recorded aptamer binding inhibition of COc1cc2nc(N3CCN(C(=O)C4COc5ccccc5O4)CC3)nc(N)c2cc1OC (stereo not given) , please.
Result: 1

Ask: Recorded aptamer binding inhibition of Cc1ccc2c(c1)OC(=O)CC2c1ccccc1 (stereo not given) , please.
Result: 5

Ask: Recorded aptamer binding inhibition of CC(=O)[C@@]1(O)CC[C@H]2[C@@H]3CCC4=CC(=O)CC[C@]4(C)[C@H]3CC[C@@]21C , please.
Result: -15

###

Consider the following compounds; for each one, report its GFP response vs DMSO.
# METHOD DESCRIPTION: RPL19A-GFP modulators, yeast TOR pathway, confirmation, cell-based, S. cerevisiae, flow cytometry, cherry picks, mother/daughter gates (AID 2270)
# EXPERIMENTAL PARAMETERS: S. cerevisiae RPL19A-GFP strain, 3 h, measured here: mother cell gate, at 10 µM, stronger effect = lower value, 100 = same GFP as DMSO wells
Write the answer as a number in %, unit excluded.

Ask: Recorded GFP response vs DMSO of Cc1[nH]c2ccccc2c1C(=O)C(C)OC(=O)C1CCC1 (centres undefined) , please.
Result: 97.8

Ask: Recorded GFP response vs DMSO of O=C(Nc1cccnc1)c1ccc(-c2ccc(Cl)cc2)o1 , please.
Result: 97.7

Ask: Recorded GFP response vs DMSO of O=C(/C=C/c1c(F)cccc1Cl)c1ccc(F)cc1 , please.
Result: 101

Ask: Recorded GFP response vs DMSO of COc1ccc(N2C(=O)C(Cl)=C(Nc3ccccc3OC)C2=O)cc1 , please.
Result: 102

Ask: Recorded GFP response vs DMSO of O=C(Nc1cccc(O)c1)c1ccc(Br)cc1 , please.
Result: 97.2

Ask: Recorded GFP response vs DMSO of Cc1ccc(/C=c2\sc3nc(-c4cccs4)nn3c2=O)o1 , please.
Result: 95.4

Ask: Recorded GFP response vs DMSO of Cc1ccc(/C=C/C(=O)c2ccc(C)cc2)cc1 , please.
Result: 99.3

Ask: Recorded GFP response vs DMSO of CN(C)S(=O)(=O)c1cc(NC(=O)CN2CCOCC2)ccc1Cl , please.
Result: 97.7

Ask: Recorded GFP response vs DMSO of COc1cc(/C=C2/C(=O)ON=C2c2ccccc2)ccc1O , please.
Result: 100

Ask: Recorded GFP response vs DMSO of COc1ccc(NC(=O)C2CCN(S(=O)(=O)c3ccc(OC)c(OC)c3)CC2)c(OC)c1 , please.
Result: 89

Ask: Recorded GFP response vs DMSO of O=C1c2ccsc2SCCN1Cc1cccc(F)c1 , please.
Result: 96.8

Ask: Recorded GFP response vs DMSO of O=C(/C=C/c1ccc(F)cc1)c1ccccc1Br , please.
Result: 98.3

Ask: Recorded GFP response vs DMSO of Cc1cc(NC(c2ccc(Cl)cc2)c2ccc3cccnc3c2O)no1 (centres undefined) , please.
Result: 97.6

Ask: Recorded GFP response vs DMSO of O=C(N/N=C/c1ccc(OCCCF)cc1)c1cc(OCC(F)(F)F)ccc1OCC(F)(F)F , please.
Result: 98.2

Ask: Recorded GFP response vs DMSO of CCn1c(=O)c(C(C)=O)c(O)c2ccccc21 , please.
Result: 104

Ask: Recorded GFP response vs DMSO of O=[N+]([O-])c1cc(CN2CCN(c3cccc(C(F)(F)F)c3)CC2)c2cccnc2c1O , please.
Result: 104

Ask: Recorded GFP response vs DMSO of CN1c2ccsc2/C(=N/Nc2ccc(F)cc2)CS1(=O)=O , please.
Result: 99

Ask: Recorded GFP response vs DMSO of O=[N+]([O-])c1ccc(N2N=C(c3ccco3)CC2c2ccccc2)cc1 (centres undefined) , please.
Result: 97.7

Ask: Recorded GFP response vs DMSO of CCCN1CCc2c(sc(NC(=S)NC(=O)c3ccccc3)c2C#N)C1 , please.
Result: 97.8

Ask: Recorded GFP response vs DMSO of CCOc1c(Br)ccc2c1sc1nc[nH]c(=O)c12 , please.
Result: 100

Ask: Recorded GFP response vs DMSO of N#C/C(=C/c1ccc(N2CCOCC2)o1)c1ccc(Cl)cc1 , please.
Result: 91.5

Ask: Recorded GFP response vs DMSO of O=C(O)C1Sc2[nH]c(=O)sc2C2c3cc(Br)ccc3OC(=O)C12 (centres undefined) , please.
Result: 96.8

Ask: Recorded GFP response vs DMSO of O=C(O)C1CCN(S(=O)(=O)c2ccc(Oc3ccccc3)cc2)CC1 , please.
Result: 98.8

Ask: Recorded GFP response vs DMSO of CCOC(=O)c1c(C)[nH]c(C)c1C(=O)COC(=O)c1cc2ccccc2cc1O , please.
Result: 94.8

###

# METHOD DESCRIPTION: RPL19A-GFP modulators, yeast TOR pathway, confirmation, cell-based, S. cerevisiae, flow cytometry, cherry picks, mother/daughter gates (AID 2270)
# EXPERIMENTAL PARAMETERS: S. cerevisiae RPL19A-GFP strain, 3 h, measured here: mother cell gate, at 10 µM, stronger effect = lower value, 100 = same GFP as DMSO wells
PROPERTY: GFP response vs DMSO (%)
Write the answer as a number in %, unit excluded.

Ask: Recorded GFP response vs DMSO of Cc1ccc(C(=O)c2c3ccccc3[n+]([O-])n2CCO)cc1 , please.
Result: 96.6

Ask: Recorded GFP response vs DMSO of COc1ccc(-c2[nH]ncc2-c2ccc(Cl)cc2)c(O)c1 , please.
Result: 99.4

Ask: Recorded GFP response vs DMSO of O=[N+]([O-])c1ncccc1OCc1ccc(-c2ccccc2)cc1 , please.
Result: 98.8

Ask: Recorded GFP response vs DMSO of COc1ccc(N2C(=O)C(Cl)=C(Oc3cccc(OC)c3)C2=O)cc1 , please.
Result: 79.9

Ask: Recorded GFP response vs DMSO of CCOC(=O)c1sc(Nc2nc3c(OC)cccc3s2)nc1C , please.
Result: 69

Ask: Recorded GFP response vs DMSO of Cc1cc(Cl)ccc1N=c1ssnc1Cl , please.
Result: 86.5
